// data source = the supplement of paper PMC10567573

# assay_procedure: protein stability index of a GFP-peptide fusion (GPS, HEK-293T) (PSI 1-6); higher = more stable;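 also: 24-mer peptide tiles fused after GFP, lentivirally expressed, FACS-sorted into six equal bins by GFP/DsRed ratio, decoded by Illumina sequencing, PSI is the read-weighted mean bin number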
# condition_parameters: treatment: MLN4924 1 uM, 8 h; c terminus: a fixed tail appended
Answer -1 if protein stability index is under 3, and 1 if it is 3 or more.

Worked set:
| sequence_chain | discrete_label |
| --- | --- |
| KVSQWWERLTKQEKRPLFLAPDFD [HACD3] | -1 |
| YLYGILEERKNEMTQVITRTQEEK [TRIM55] | 1 |
| YGETDFHKQDGKAGLFSQEQYERN [TMEM40] | 1 |

Prompt: Decide: is the reported value of protein stability index for PAWNSKLQYILAQIGFSVGLGNIW [SLC6A17] equal to or greater than 3?
Completion: -1

Prompt: Decide: is the reported value of protein stability index for YSRYLNEKAFSYRQMAFDFARVKK [SNAP91] equal to or greater than 3?
Completion: -1

Prompt: Decide: is the reported value of protein stability index for HTGERPYECTVCKKRFTRRSHLIG [ZNF449] equal to or greater than 3?
Completion: 1

Prompt: Decide: is the reported value of protein stability index for SGLIEIQSYPLCIYLINQKWFGRK [SLC22A15] equal to or greater than 3?
Completion: -1

Prompt: Decide: is the reported value of protein stability index for TPETRAKFTQDNLCRAQRERLASA [TEKT4] equal to or greater than 3?
Completion: 1

Prompt: Decide: is the reported value of protein stability index for MVDSFHRTSLQYGIMCLKRLNYDR [PPFIA4] equal to or greater than 3?
Completion: -1

Prompt: Decide: is the reported value of protein stability index for IGAAPFSGRRNWCSYVVTRTISCH [EMID1] equal to or greater than 3?
Completion: -1

====

protein stability index values for the sequences below.
# assay_procedure: protein stability index of a GFP-peptide fusion (GPS, HEK-293T) (PSI 1-6); higher = more stable
# condition_parameters: treatment: MLN4924 1 uM, 8 h; c terminus: a fixed tail appended
Write no unit; give the number alone.

Sample records with protein stability index:
| sequence_chain | protein stability index |
| --- | --- |
| SVVLRRARGGAVSARYVLPDEAAR [DUSP5] | 3.55 |
| GGLSLHDYKLLKPSLAVNLADPYR [JUNB] | 2.76 |
| DELAHRCSSFMAPPVTDLGELRRR [CPOX] | 4.04 |
| WWALSTCGYFQVVNYTQGLWEKVM [SLC19A2] | 2.45 |
| QIVLLKSSAIEVIMLRSNESFTMD [VDR] | 2.44 |
| DNSLSSQNYISQKEDASEFQILKY [MIA2] | 3.74 |
| SFEHRVRGVRRTASTPTPDDKLFQ [CPN1] | 4.37 |
| TIKHPGGAGAEESELQAYIAQCQD [MCOLN1] | 5.23 |
| VLRAGDREDITEPAICALRHLTSR [CTNNB1] | 3.67 |
| DAVFMKDGFFYFFHGTRQYKFDPK [MMP1] | 2.1 |

The sequence listed as SEHVLKKAHKYSELIILYEKKGLH [VPS39] has a reported protein stability index of 2.27

The sequence listed as ILSKMPKPKPPPNSEGEQGPNGSQ [CCNC] has a reported protein stability index of 5.1

The sequence listed as YNHQHKYFFLIGPPALLPLYFQWY [FADS1] has a reported protein stability index of 2.38

The sequence listed as SDTYRCEERSPSFGEDYYGPSRSR [CLK3] has a reported protein stability index of 4.52

The sequence listed as SSIECYDPIIDSWEVVTSMGTQRC [KLHL12] has a reported protein stability index of 3.24

The sequence listed as LKIPQVRGMDLSWESRTGDQYSYS [LCOR] has a reported protein stability index of 2.86

The sequence listed as HRSACSSAAVRGHPRALPPDARPH [HAGHL] has a reported protein stability index of 3.77

The sequence listed as KKRRLPPVHIHPAFARQAAQEPSA [FOXJ1] has a reported protein stability index of 3.82

The sequence listed as STVGKLCRLINEDVNEQVMQVLGP [CEP70] has a reported protein stability index of 3.2

The sequence listed as ALKEDFGFKHRLWVYSGRRGVHCW [PRIM1] has a reported protein stability index of 2.48

The sequence listed as PPPLGPVVPVLVFPPDLVFRADQR [MOSPD3] has a reported protein stability index of 3.22
